target: Mitogen-activated protein kinase kinase kinase 11 (Homo sapiens); assay: Inhibition of GST-fused human MLK3 at 1 uM
Sequence (Q16584 whole entry, looked up, the tested form may be a part): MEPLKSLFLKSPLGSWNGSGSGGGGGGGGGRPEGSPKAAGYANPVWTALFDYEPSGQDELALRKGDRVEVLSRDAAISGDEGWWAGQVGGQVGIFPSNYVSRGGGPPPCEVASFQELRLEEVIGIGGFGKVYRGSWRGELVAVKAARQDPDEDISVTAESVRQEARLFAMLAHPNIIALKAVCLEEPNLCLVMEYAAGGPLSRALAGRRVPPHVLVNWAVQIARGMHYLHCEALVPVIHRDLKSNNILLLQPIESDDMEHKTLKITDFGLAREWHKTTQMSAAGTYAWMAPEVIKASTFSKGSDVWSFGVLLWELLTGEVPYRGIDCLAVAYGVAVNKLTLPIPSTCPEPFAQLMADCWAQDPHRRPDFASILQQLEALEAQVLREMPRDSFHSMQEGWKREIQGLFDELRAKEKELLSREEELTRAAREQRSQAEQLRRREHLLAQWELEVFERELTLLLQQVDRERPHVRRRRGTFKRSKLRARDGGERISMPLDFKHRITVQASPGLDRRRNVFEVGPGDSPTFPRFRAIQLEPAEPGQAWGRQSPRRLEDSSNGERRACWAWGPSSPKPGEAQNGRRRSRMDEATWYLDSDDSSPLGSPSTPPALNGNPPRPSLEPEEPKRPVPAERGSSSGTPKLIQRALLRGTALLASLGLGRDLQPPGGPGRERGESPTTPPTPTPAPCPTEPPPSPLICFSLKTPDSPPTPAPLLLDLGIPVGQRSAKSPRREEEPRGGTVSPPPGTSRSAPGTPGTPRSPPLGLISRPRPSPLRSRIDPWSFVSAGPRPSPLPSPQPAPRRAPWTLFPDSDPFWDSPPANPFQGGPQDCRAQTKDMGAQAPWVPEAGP
PROPERTY_NAME: inhibition (%)

Use the examples below as a reference point.
O=C1NCc2c1c1c(c3c2c2ccccc2n3CCO)CCc2cc(OCCOCc3ccccc3)ccc2-1; 0
O=C1NCc2c1c1c(c3c2c2ccccc2n3CCO)CCc2cc(O)ccc2-1; 30
COCCOc1ccc2c(c1)CCc1c-2c2c(c3c4ccccc4n(CCO)c13)CNC2=O; 40

(P) N#CCOc1ccc2c(c1)CCc1c-2c2c(c3c4ccccc4n(CCO)c13)CNC2=O
(Q) O=C1NCc2c1c1c(c3c2c2ccccc2n3CCO)CCc2cc(OC3CCCC3)ccc2-1
Query :: When P and Q are compared, which has the higher number for inhibition? Bench note: the answer is the label of the chosen record.
Result :: Q
(Q: 32%, P: 8%)
